Taken from PubChem BioAssay (NCI).

# System: NCI-H460 lung
# Experiment: NCI-60 one-dose screen, 48 h
# Details: 10 µM unless noted
The panel holds about 83,000 compounds, 20% with a hit somewhere; the sample as a whole holds those more often. The source made the active and inactive calls. The calls were made as follows: active = growth percent below 10; inactive = the rest.
Outcome codes: label 1 (active), label 0 (inactive)

C#C[C@]1(O)CC[C@H]2[C@@H]3CC=C4c5sc(-c6cccc(F)c6)nc5CC[C@]4(C)[C@H]3CC[C@@]21C
label 0
CCOC(=O)/C(F)=C/C1CC1CCc1cccc(C(F)(F)F)c1 (centres undefined)
label 0
C#Cc1ccc(NC(=O)c2ccc(/C=C/C(=O)c3nccn3C)cc2)c(F)c1
label 1
c1ccc(-c2n(Cc3ccc4ccccc4c3)c3c4ccccc4c4ccccc4c3[n+]2Cc2ccc3ccccc3c2)cc1
label 1
C#C[C@]1(O)CC[C@H]2[C@@H]3CC=C4c5sc(-c6ccc(OC)cc6)nc5CC[C@]4(C)[C@H]3CC[C@@]21C
label 0
O=C1CC2(CCOCC2)Oc2ncccc21
label 0
COc1cccc(/C=C/C(=O)c2ccc(NC(=O)COc3cccc4cccnc34)cc2)c1
label 0
O=C(CSc1nnc(-c2ccc(Cl)cc2)n1-c1ccccc1)Nc1ccc(F)cc1
label 0
COc1cc(-c2noc(C[C@@H](NC(=O)OCc3ccccc3)C(C)C)n2)cc(OC)c1OC
label 0

====

# Tested on: 786-0 renal
# Experiment: NCI-60 one-dose screen, 48 h
# Details: 10 µM unless noted
# Procedure: Cells are grown in 96 well plates and exposed to the test compound for 48 hours. Compounds are tested at a single concentration, which is 10^-5 M for most compounds. The reported endpoint is percent growth (GI% or GIPRCNT), where numbers from 0 - 100% represent growth inhibition, and numbers from -100% - 0 represent cell death. For example, a value of 40 represents 60% growth inhibition. A value of 0 means no net growth occurred over the course of the experiment. […]
Compounds without any hit were thinned out: in the full panel of roughly 83,000, 20% have a hit. The source made the active and inactive calls. The calls were made as follows: active = growth percent below 10; inactive = the rest.
Outcome codes: yes (1) = active, no (0) = inactive

C#C[C@]1(O)CC[C@H]2[C@@H]3CC=C4c5sc(Nc6cc(OC)ccc6OC)nc5CC[C@]4(C)[C@H]3CC[C@@]21C
yes (1)
CC(=O)NC(C)(C)C(=O)N1CCC[C@H]1C(=O)NC(C)(C)C(=O)N[C@@H](C)C(=O)NC(C)(C)C(=O)N[C@@H](C)C(=O)N[C@@H](CCC(N)=O)C(=O)NC(C)(C)C(=O)N[C@H](C(=O)NC(C)(C)C(=O)NCC(=O)N[C@@H](CC(C)C)C(=O)NC(C)(C)C(=O)N1CCC[C@H]1C(=O)N[C@H](C(=O)NC(C)(C)C(=O)NC(C)(C)C(=O)N[C@@H](CCC(N)=O)C(=O)N[C@@H](CCC(N)=O)C(=O)N[C@H](CO)Cc1ccccc1)C(C)C)C(C)C
no (0)
O=C(Cn1cc(CN2C(=O)c3ccc([N+](=O)[O-])cc3C2=O)nn1)Nc1ccc(F)cc1Cl
no (0)
COc1ccc(NC(=O)Cn2cc(CN3C(=O)c4ccc([N+](=O)[O-])cc4C3=O)nn2)cc1
no (0)
O=C(CCCCCCN1CC(=O)N2[C@@H](c3cccc(Cl)c3)c3[nH]c4ccccc4c3C[C@H]2C1=O)NO
no (0)
CC(=O)Nc1nc2c(s1)C1=CC[C@H]3[C@@H]4CC[C@H](C(C)=O)[C@@]4(C)CC[C@@H]3[C@@]1(C)CC2
no (0)
O=C(Nc1ccc(Cl)cc1)Nc1nc2ccc([N+](=O)[O-])cc2s1
yes (1)
O=C(N/N=C\c1ccc(Cl)cc1)c1ccc2nc(-c3ccc(Br)cc3)[nH]c2c1
yes (1)
NC(=O)C(=Cc1ccc(Cl)cc1)C(N)=O
no (0)
COc1cc(CNC(=O)Cc2ccccc2[N+](=O)[O-])ccc1OCC(=O)NO
no (0)
NS(=O)(=O)c1ccc(-n2cc(CC=O)nn2)cc1
no (0)
Oc1ccc(CSc2nnc(-c3ccc(Oc4ccccc4)cc3)o2)c2cccnc12
yes (1)
Nc1nc(-c2cccc([N+](=O)[O-])c2)c(N=Nc2cccc(Cl)c2)s1
no (0)
COc1cnc2c(c1)C(=O)c1c-2n(CCCn2ccnc2)c(=O)c2cc(OC)c(OC)cc12
yes (1)
O=C(CSc1nnc(-c2ccc(Cl)cc2)n1-c1ccccc1)Nc1ccc(F)cc1
no (0)
COc1ccc(N2C(=O)c3cc(OC)c(OC)cc3NC2SCc2ccccc2)cc1 (stereo unspecified)
no (0)
